Experiment: chemical genetic growth profiling, strain panel (AID 1159580);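 note: tested at 20 µM; growth read once vehicle control cultures reached saturation at 30 °C; 1 = growth at the plate median or of vehicle wells; lower values mean less growth of the strain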
Settings: S. cerevisiae deletion strains, growth OD, locus YOR270C, strain vph1, active compounds read low
In all, about 5,500 compounds went through this assay and about 2,000 (36%) were called active. Another 18% or so got no clear call; they are omitted. This is one part of the list.
Threshold 0.9: normalized growth strictly smaller gives true (1), otherwise false (0).

Ask: Dear reviewer, please state whether CC(=O)OCC[C@H](C)CCC=C(C)C has normalized growth strictly beneath 0.9.
Result: false (0)

Ask: Dear reviewer, please state whether C#CCCCCCCCCCCCC(O)CC(O)CO (stereo not drawn) has normalized growth strictly beneath 0.9.
Result: false (0)

Ask: Dear reviewer, please state whether CCCOc1ccc(C(=O)OCCN(CC)CC)cc1N has normalized growth strictly beneath 0.9.
Result: false (0)

Ask: Dear reviewer, please state whether NC(=O)c1cccc(N)c1 has normalized growth strictly beneath 0.9.
Result: false (0)

Ask: Dear reviewer, please state whether Nc1nc2ncc(=O)[nH]c2c(=O)[nH]1 has normalized growth strictly beneath 0.9.
Result: false (0)

Ask: Dear reviewer, please state whether COC(=O)[C@@H]1OC(=O)[C@H]2O[C@@]23[C@@]1(C)CCC1[C@@]2(C)CCC(=O)C(C)(C)C2C[C@@H](OC(C)=O)[C@]13C (stereo partly drawn) has normalized growth strictly beneath 0.9.
Result: false (0)

Ask: Dear reviewer, please state whether CCCCCCOc1ccccc1C(N)=O has normalized growth strictly beneath 0.9.
Result: true (1)

Ask: Dear reviewer, please state whether C[C@H]1COC2=C1C(=O)C(=O)c1c2ccc2c1CCCC2(C)C has normalized growth strictly beneath 0.9.
Result: true (1)

Ask: Dear reviewer, please state whether CCN(CC)CCOC(=O)c1ccc(N)cc1 has normalized growth strictly beneath 0.9.
Result: false (0)

Ask: Dear reviewer, please state whether C#CCCCCCCCCCCCC(=O)CC(O)COC(C)=O (stereo not drawn) has normalized growth strictly beneath 0.9.
Result: false (0)

Ask: Dear reviewer, please state whether CCCCNc1ccc(C(=O)OCCN(C)C)cc1 has normalized growth strictly beneath 0.9.
Result: false (0)

Ask: Dear reviewer, please state whether CC(=O)OCC(OC(C)=O)C(OC(C)=O)C(OC(C)=O)C(OC(C)=O)C(COC(C)=O)OC(C)=O (stereo not drawn) has normalized growth strictly beneath 0.9.
Result: false (0)

----------
Assay: chemical genetic growth profiling, strain panel (AID 1159580);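 note: tested at 20 µM; growth read once vehicle control cultures reached saturation at 30 °C; 1 = growth at the plate median or of vehicle wells; lower values mean less growth of the strain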
Conditions: S. cerevisiae deletion strains, growth OD, locus YEL037C, strain rad23, active compounds read low
Screen size: about 5,500 compounds; about 2,000 (36%) were called active. Inconclusive results (about 18%) are left out. This is one part of the list.
Threshold 1: normalized growth strictly smaller gives y, otherwise n.

Ask: Dear reviewer, please state whether C=C1C(=O)O[C@@H]2C[C@@]3(C)CCC[C@H](C)C3=C[C@H]12 has normalized growth strictly beneath 1.
Result: y

Ask: Dear reviewer, please state whether O=C1CC2OCC=C3CN4CC[C@]56c7ccccc7N1C5[C@H]2[C@H]3CC46 (some centres undefined) has normalized growth strictly beneath 1.
Result: n

Ask: Dear reviewer, please state whether COc1ccc(CCN2CCC(Nc3nc4ccccc4n3Cc3ccc(F)cc3)CC2)cc1 has normalized growth strictly beneath 1.
Result: y

----------
Assay: chemical genetic growth profiling, strain panel (AID 1159580);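 note: tested at 20 µM; growth read once vehicle control cultures reached saturation at 30 °C; 1 = growth at the plate median or of vehicle wells; lower values mean less growth of the strain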
Conditions: S. cerevisiae deletion strains, growth OD, locus YIL066C, strain RNR3, active compounds read low
Screen size: about 5,500 compounds; about 2,000 (36%) were called active. Not shown: some 18% with an inconclusive outcome. Some of the results follow.
Threshold 1: normalized growth strictly smaller gives T, otherwise F.

Ask: Dear reviewer, please state whether CO[C@@]1(NC(=O)CSCC#N)C(=O)N2C(C(=O)O)=C(CSc3nnnn3C)CSC21 (stereo partly specified) has normalized growth strictly beneath 1.
Result: F

Ask: Dear reviewer, please state whether NC(CO)C(=O)NNCc1ccc(O)c(O)c1O (stereo unspecified) has normalized growth strictly beneath 1.
Result: F

Ask: Dear reviewer, please state whether CCCCOC(=O)c1ccccc1C(=O)OCc1ccccc1 has normalized growth strictly beneath 1.
Result: T
